Just for reference, PubChem BioAssay AID292 is where these values come from.

Test system: B6C3F1 mice, ip Sarcoma M5076, median survival T/C
Assay: NCI In Vivo Anticancer Drug Screen. Data for tumor model Sarcoma M5076 (intraperitoneal) in B6C3F1 mice
Details: endpoint: median survival time; dose: 100.0 mg/kg/injection; schedule: Q04DX004 (ip); vehicle: saline; higher = longer survival
Inconclusive results and toxic doses are left out.
So I've got a bunch of molecules here, and I need their T/C values.

INSERT INTO measurements (molecule, assay_system, result) VALUES
  ('Nc1ccn([C@@H](C=O)C[C@@H](C=O)CO)c(=O)n1', 'B6C3F1 mice, ip Sarcoma M5076, median survival T/C', '103 % of control'),
  ('N#CC1C(=O)NC(=S)NC1c1ccc2c(c1)CCC2 (stereo unspecified)', 'B6C3F1 mice, ip Sarcoma M5076, median survival T/C', '97 % of control'),
  ('CCN(CC)CCn1c2c(c3ccc(OC)cc31)CCN1CC3CC(OC(=O)c4cc(OC)c(OC)c(OC)c4)C(OC)C(C(=O)OC)C3CC21 (stereo unspecified)', 'B6C3F1 mice, ip Sarcoma M5076, median survival T/C', '97 % of control'),
  ('CN(C)CCC(=O)C(=Cc1ccc(O)cc1)C(=O)CCN(C)C', 'B6C3F1 mice, ip Sarcoma M5076, median survival T/C', '104 % of control'),
  ('COc1cc(C2=NCCc3cc4c(cc32)OCO4)cc(OC)c1OC', 'B6C3F1 mice, ip Sarcoma M5076, median survival T/C', '110 % of control');

Value sought for every listed molecule: T/C.
1. COC1N(C2CC(O)C(CO)O2)C(=O)NC(=O)C1(F)Br (stereo unspecified)
2. N=C(N)SCc1cccc2c(=O)cc(-c3ccccc3)oc12
3. N[C@@H](C[C@H]1CCC(=O)[C@@H]2O[C@H]12)C(=O)O
4. Cc1ccc(C(=O)Nc2ccc(S(=O)(=O)O)c3cc(S(=O)(=O)O)cc(S(=O)(=O)O)c23)cc1NC(=O)c1cccc(NC(=O)Nc2cccc(C(=O)Nc3cc(C(=O)Nc4ccc(S(=O)(=O)O)c5cc(S(=O)(=O)O)cc(S(=O)(=O)O)c45)ccc3C)c2)c1
5. CN(C)C=O
6. CCN(CC)CCCC(C)Nc1c2ccc(Cl)cc2nc2ccc(OC)cc12 (stereo unspecified)

Marked response:
112 % of control
102 % of control
106 % of control
112 % of control
103 % of control
112 % of control

----------
System: B6C3F1 mice, ip Sarcoma M5076, median survival T/C
Experiment: NCI In Vivo Anticancer Drug Screen. Data for tumor model Sarcoma M5076 (intraperitoneal) in B6C3F1 mice
Conditions: endpoint: median survival time; dose: 100.0 mg/kg/injection; schedule: Q04DX004 (ip); vehicle: suspension in saline; higher = longer survival
Inconclusive results and toxic doses are left out.
Measured Metric: T/C

INSERT INTO results (molecule, result) VALUES
  ('CC(=O)NCCSSCc1ccccc1CS(=O)O', '100 % of control'),
  ('CCOC(=O)C1=C(Nc2ccc(OC)cc2)C(N)=NC1=N', '101 % of control'),
  ('O=C(O)Cc1cccc2c(=O)cc(-c3ccccc3)oc12', '102 % of control'),
  ('CC(C)(C)CCC(Br)CBr (configuration not stated)', '111 % of control'),
  ('O=S(O)Cc1ccccc1CSSSCc1ccccc1CS(=O)O', '95 % of control'),
  ('CN(C)C(=O)c1cccc(COc2ccc(N3C(N)=NC(N)=NC3(C)C)cc2Cl)c1', '113 % of control'),
  ('Oc1ccc(/C=N/Nc2nnc(N/N=C/c3ccc(O)cc3O)c3ccccc23)c(O)c1', '119 % of control'),
  ('O=c1[nH]cnc2c1nnn2C1OC(CO)C(O)C1O (configuration not stated)', '94 % of control'),
  ('CN(C)[C@@H]1C(=O)C(C(N)=O)=C(O)[C@@]2(O)C(=O)C3=C(O)c4c(O)ccc(Cl)c4[C@@](C)(O)[C@H]3C[C@@H]12', '91 % of control'),
  ('N[C@@H](Cc1c[nH]c2ccccc12)C(=O)Nc1nncs1', '95 % of control');

Value sought for every listed molecule: T/C.
1. O=C(O)CC1C(=O)OC2C3COC(=O)c4cc(O)c(O)c(O)c4-c4c(cc(O)c(O)c4O)C(=O)OC2C(OC(=O)c2cc(O)c(O)c4c2C1C(O)C(=O)O4)C(OC(=O)c1cc(O)c(O)c(O)c1)O3 (configuration not stated)
2. CC#CCOCC(O)CCl (configuration not stated)

Marked response:
1: 100 % of control; 2: 102 % of control
